biological target: Tyrosine-protein kinase CSK (Homo sapiens); also: in the data inactive means no Kd found up to 30 µM
Sequence (P41240 whole entry): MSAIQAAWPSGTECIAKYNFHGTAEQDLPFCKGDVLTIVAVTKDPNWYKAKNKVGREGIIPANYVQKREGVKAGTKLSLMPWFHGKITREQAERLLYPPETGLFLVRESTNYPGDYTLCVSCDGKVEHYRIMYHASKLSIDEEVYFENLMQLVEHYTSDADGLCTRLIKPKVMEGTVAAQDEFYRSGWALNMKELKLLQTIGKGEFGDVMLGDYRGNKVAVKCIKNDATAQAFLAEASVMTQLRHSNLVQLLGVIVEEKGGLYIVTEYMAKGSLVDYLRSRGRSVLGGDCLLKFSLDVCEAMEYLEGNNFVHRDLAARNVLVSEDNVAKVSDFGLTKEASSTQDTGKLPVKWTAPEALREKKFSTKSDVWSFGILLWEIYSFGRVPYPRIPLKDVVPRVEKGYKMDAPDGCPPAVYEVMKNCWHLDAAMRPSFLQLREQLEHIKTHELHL
Active and inactive are the calls of the source.
MEASUREMENT TYPE: Kd

Answered examples (6):
{"COMPOUND": "FC(F)(F)c1ccc(/C=C/c2nc(COc3ccc(CCCCn4ccnn4)cc3)co2)cc1", "EXPERIMENTAL TARGET": "Tyrosine-protein kinase CSK (Homo sapiens)", "Kd": "> 30 µM (inactive)"}
{"COMPOUND": "O=C(Cc1ccc(-c2ccc(OCCN3CCOCC3)cc2)cn1)NCc1ccccc1", "EXPERIMENTAL TARGET": "Tyrosine-protein kinase CSK (Homo sapiens)", "Kd": "> 30 µM (inactive)"}
{"COMPOUND": "CC(=O)NCC(=O)N1[C@@H]2CC[C@H]1c1ccc(Nc3ncc(C(F)(F)F)c(NC4CCC4)n3)cc12", "EXPERIMENTAL TARGET": "Tyrosine-protein kinase CSK (Homo sapiens)", "Kd": "> 30 µM (inactive)"}
{"COMPOUND": "C=CC(=O)Nc1cc2c(Nc3ccc(F)c(Cl)c3)ncnc2cc1C#CC(C)(C)N1CCN(C)CC1 [AV-412 FREE BASE]", "EXPERIMENTAL TARGET": "Tyrosine-protein kinase CSK (Homo sapiens)", "Kd": "> 30 µM (inactive)"}
{"COMPOUND": "CN1C/C=C/CCOc2cccc(c2)-c2ccnc(n2)Nc2cccc(c2)C1", "EXPERIMENTAL TARGET": "Tyrosine-protein kinase CSK (Homo sapiens)", "Kd": "> 30 µM (inactive)"}
{"COMPOUND": "CCS(=O)(=O)c1cccc(-c2cc(C(=O)NC3CCN(C)CC3)c(C)c3[nH]c4ncc(C)cc4c23)c1", "EXPERIMENTAL TARGET": "Tyrosine-protein kinase CSK (Homo sapiens)", "Kd": "> 30 µM (inactive)"}

Prompt: Determine its reported Kd: `C=CC(=O)N1CCC[C@H](n2c(=O)n(-c3ccc(Oc4ccccc4)cc3)c3c(N)ncnc32)C1`
Response: 0.007 µM

Prompt: Determine its reported Kd: `COc1cc([C@@H]2c3cc4c(cc3[C@H](O)[C@H]3COC(=O)[C@@H]23)OCO4)cc(OC)c1OC`
Response: > 30 µM (inactive)

---

Active and inactive are the calls of the source.
Values of Kd reported for LIM domain kinase 2 (Homo sapiens) appear below.

Answered examples (2):
{"MOLECULE": "CN(C[C@@H]1COCCO1)S(=O)(=O)Nc1ccc2ccc3ncc(-c4cnn(C)c4)cc3c(=O)c2c1 [MK-2461]", "EXPERIMENTAL TARGET": "LIM domain kinase 2 (Homo sapiens)", "TEST RESULT": "> 30 µM (inactive)"}
{"MOLECULE": "CO[C@H]1C[C@@H]2CC[C@@H](C)[C@@](O)(O2)C(=O)C(=O)N2CCCC[C@H]2C(=O)O[C@H]([C@H](C)C[C@@H]2CC[C@@H](OC(=O)C(C)(CO)CO)[C@H](OC)C2)CC(=O)[C@H](C)/C=C(\\C)[C@@H](O)[C@@H](OC)C(=O)[C@H](C)C[C@H](C)/C=C/C=C/C=C/1C [TEMSIROLIMUS]", "EXPERIMENTAL TARGET": "LIM domain kinase 2 (Homo sapiens)", "TEST RESULT": "> 30 µM (inactive)"}

Attention now turns to another entry.
Prompt: Write down the reported Kd (system: LIM domain kinase 2 (Homo sapiens)) of Cc1cnc(NC(=O)Nc2cc(Br)c(C)cc2OC[C@@H]2CNCCO2)cn1 [RABUSERTIB]; also: in the data inactive means no Kd found up to 30 µM
Sequence (P53671 whole entry, the tested form may be a part): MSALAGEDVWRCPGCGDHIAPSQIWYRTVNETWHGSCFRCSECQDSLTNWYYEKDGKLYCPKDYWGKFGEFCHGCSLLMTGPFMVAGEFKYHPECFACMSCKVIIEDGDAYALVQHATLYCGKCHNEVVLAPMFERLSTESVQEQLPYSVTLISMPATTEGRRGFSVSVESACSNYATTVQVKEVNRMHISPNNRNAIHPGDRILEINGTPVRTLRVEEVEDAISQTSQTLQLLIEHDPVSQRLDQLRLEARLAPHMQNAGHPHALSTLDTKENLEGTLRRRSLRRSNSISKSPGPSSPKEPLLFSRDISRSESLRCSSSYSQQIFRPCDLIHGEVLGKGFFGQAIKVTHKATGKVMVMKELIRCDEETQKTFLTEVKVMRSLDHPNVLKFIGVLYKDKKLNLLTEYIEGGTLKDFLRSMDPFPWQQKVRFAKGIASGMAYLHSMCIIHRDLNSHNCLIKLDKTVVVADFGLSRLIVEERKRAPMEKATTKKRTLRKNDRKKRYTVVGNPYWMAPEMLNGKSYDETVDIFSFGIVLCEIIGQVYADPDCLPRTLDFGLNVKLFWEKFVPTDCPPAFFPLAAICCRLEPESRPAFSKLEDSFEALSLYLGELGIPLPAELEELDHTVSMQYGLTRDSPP
Response: > 30 µM (inactive)

Values were extracted from ChEMBL document CHEMBL3991601.
